- SYSTEM TESTED: PPARδ (Homo sapiens)
- Construct: expressed in transfected cells; host or cells: PathHunter NHR cell lines
- Sequence (Q03181 1-441): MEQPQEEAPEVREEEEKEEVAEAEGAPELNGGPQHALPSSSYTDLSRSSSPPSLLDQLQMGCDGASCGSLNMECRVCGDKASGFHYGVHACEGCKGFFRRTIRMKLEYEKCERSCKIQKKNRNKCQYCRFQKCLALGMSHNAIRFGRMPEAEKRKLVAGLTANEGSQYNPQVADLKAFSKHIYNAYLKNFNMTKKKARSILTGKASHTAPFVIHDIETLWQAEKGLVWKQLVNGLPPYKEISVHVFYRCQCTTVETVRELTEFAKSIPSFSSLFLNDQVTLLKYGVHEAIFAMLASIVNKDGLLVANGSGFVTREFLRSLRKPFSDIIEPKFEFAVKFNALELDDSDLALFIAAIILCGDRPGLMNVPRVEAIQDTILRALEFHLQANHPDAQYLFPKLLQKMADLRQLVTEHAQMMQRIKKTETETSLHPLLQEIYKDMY
- PROCEDURE SUMMARY: Nuclear Hormone Receptor (NHR) protein interaction assay (PathHunter), agonist format
- Format: cell-based
- RECORDED CONDITIONS: Tables 7-16; read-out: NHR protein interaction assay, EC50 (nM) for PPARδ
METRIC: EC50 (nM)

1. CC(C)N(Cc1cc(F)ccc1OCCCCCC(=O)O)C(=O)c1ccc(-c2ccco2)cc1 [compound 204]	24.6
2. CC(C)N(Cc1ccccc1OCCCCCC(=O)O)C(=O)c1ccc(N(C)C)cc1 [Compd 128]	5390
3. Cc1ccc(C(=O)N(Cc2ccccc2OCCCCCC(=O)O)C(C)C)cc1 [Compd 131]	1610
